Sourced from patent US20190367578A1

molecular target: human GLP-1 receptor (human) (UniProt P43220); experiment: cell-based or functional assay
Sequence (P43220 24-463): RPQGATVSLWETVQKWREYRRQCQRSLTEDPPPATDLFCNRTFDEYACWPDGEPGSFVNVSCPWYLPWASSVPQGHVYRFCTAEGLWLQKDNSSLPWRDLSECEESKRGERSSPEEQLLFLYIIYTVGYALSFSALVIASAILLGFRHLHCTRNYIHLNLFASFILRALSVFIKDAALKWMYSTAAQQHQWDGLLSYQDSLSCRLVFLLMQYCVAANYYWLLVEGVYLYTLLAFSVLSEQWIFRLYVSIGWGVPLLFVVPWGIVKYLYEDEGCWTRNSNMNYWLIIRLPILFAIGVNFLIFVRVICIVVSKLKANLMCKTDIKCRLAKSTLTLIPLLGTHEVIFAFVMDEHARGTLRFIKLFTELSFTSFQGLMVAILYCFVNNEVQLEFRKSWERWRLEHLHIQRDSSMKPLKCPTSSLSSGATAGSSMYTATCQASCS
*1 amine or outer side, *2 acyl side, *3 side chain or, on linkers, in order; H or OH if unused. Where no end group is shown, it is not given here. Side-chain parts run from the residue outwards. [ ]: non-standard residue; d: D form. The star is where a group is joined. C18 diacid = O=C(O)CCCCCCCCCCCCCCCCC(=O)*; γGlu = O=C(O)[C@H](CCC(=O)[*:2])N[*:1]; Nle = CCCC[C@H](N)C(=O)O; AEEA = NCCOCCOCC(=O)O; Aib = CC(C)(N)C(=O)O
Assay endpoint: EC50 (pM), hGLP-1-R CRE Luc, 1% HSA (footnote *)

Problem: So what does the record say about EC50 (pM), hGLP-1-R CRE Luc, 1% HSA (footnote *) for Y[Aib]EGTFISDYSIALDKIHQQDFVK([AEEA-AEEA-γGlu-C18 diacid])WLLAQKGKKNDWKHNITQ ?
Solution: > 100000 pM

Problem: So what does the record say about EC50 (pM), hGLP-1-R CRE Luc, 1% HSA (footnote *) for Y[Aib]EGTFISDYSIA[Nle]DKIHQQDFVK([γGlu-γGlu-γGlu-C18 diacid])WLLAQKG ?
Solution: > 100000 pM

Problem: Which value of EC50 (pM), hGLP-1-R CRE Luc, 1% HSA (footnote *) has been reported for Y[Aib]EGTFISDYSIA[Nle]DKIRQQDFVK([γGlu-γGlu-γGlu-C18 diacid])WLLAQKGKENDWKHNITQ in the records?
Solution: > 100000 pM

Problem: Tell me the measured EC50 (pM), hGLP-1-R CRE Luc, 1% HSA (footnote *) of Y[Aib]EGTFISDYSIA[Nle]DKIHQQDFVK([γGlu-γGlu-γGlu-C18 diacid])WLLAQKGKENDWKHNITQ , please.
Solution: > 100000 pM
